protocolSummary: Prodrug activation in C57BL/6 mouse brain assessed as FAAH-mediated sobetirome formation at 3.05 umol/kg, ip after 1 hr by LC-MS/MS analysis
Type: organism-based
recordedConditions: in vivo
Classification scheme (Drug uptake): class 1: < 20 ng/g; class 2: ≥ 20 ng/g and < 60 ng/g; class 3: ≥ 60 ng/g

- Cc1cc(OCC(=O)NCC(F)F)cc(C)c1Cc1ccc(O)c(C(C)C)c1: class 3
- Cc1cc(OCC(=O)NN)cc(C)c1Cc1ccc(O)c(C(C)C)c1: class 3
- C=CCNC(=O)COc1cc(C)c(Cc2ccc(O)c(C(C)C)c2)c(C)c1: class 2
- Cc1cc(OCC(=O)NCCNS(C)(=O)=O)cc(C)c1Cc1ccc(O)c(C(C)C)c1: class 1
- Cc1cc(OCC(=O)NCCN)cc(C)c1Cc1ccc(O)c(C(C)C)c1: class 1
- Cc1cc(OCC(=O)NC2CC2)cc(C)c1Cc1ccc(O)c(C(C)C)c1: class 2
- CNC(=O)COc1cc(C)c(Cc2ccc(O)c(C(C)C)c2)c(C)c1: class 2
- Cc1cc(OCC(=O)NCC(C)O)cc(C)c1Cc1ccc(O)c(C(C)C)c1 (stereo unspecified): class 2
- Cc1cc(OCC(=O)NC(C)CO)cc(C)c1Cc1ccc(O)c(C(C)C)c1 (stereo unspecified): class 2
- CONC(=O)COc1cc(C)c(Cc2ccc(O)c(C(C)C)c2)c(C)c1: class 1
- Cc1cc(OCC(=O)NC(CO)CO)cc(C)c1Cc1ccc(O)c(C(C)C)c1: class 1
- Cc1cc(OCC(=O)NCCc2ccc(O)c(O)c2)cc(C)c1Cc1ccc(O)c(C(C)C)c1: class 1
- Cc1cc(OCC(=O)N(C)C)cc(C)c1Cc1ccc(O)c(C(C)C)c1: class 2
- Cc1cc(OCC(=O)NCCO)cc(C)c1Cc1ccc(O)c(C(C)C)c1: class 2
- Cc1cc(OCC(=O)NC2COC2)cc(C)c1Cc1ccc(O)c(C(C)C)c1: class 3
- Cc1cc(OCC(=O)Nc2cccc(O)c2)cc(C)c1Cc1ccc(O)c(C(C)C)c1: class 1

###

protocolSummary: Clearance in C57BL/6 mouse at 9.15 umol/kg, iv by LC-MS/MS analysis
Type: ADME, organism-based
recordedConditions: in vivo
experimentalEndpoint: clearance

- CNC(=O)COc1cc(C)c(Cc2ccc(O)c(C(C)C)c2)c(C)c1: 91.7 mL/min/kg

###

protocolSummary: Prodrug activation in C57BL/6 mouse serum assessed as FAAH-mediated sobetirome formation at 3.05 umol/kg, ip after 1 hr by LC-MS/MS analysis
Assay type: organism-based
recordedConditions: in vivo
experimentalEndpoint: log10 Drug uptake (log10 of the value in ng/g)

• Cc1cc(OCC(=O)NC(C)CO)cc(C)c1Cc1ccc(O)c(C(C)C)c1 (centres undefined) = 1.53
• Cc1cc(OCC(=O)NO)cc(C)c1Cc1ccc(O)c(C(C)C)c1 = 2.11
• CCNC(=O)COc1cc(C)c(Cc2ccc(O)c(C(C)C)c2)c(C)c1 = 1.33
• Cc1cc(OCC(=O)NCCF)cc(C)c1Cc1ccc(O)c(C(C)C)c1 = 1.81
• Cc1cc(OCC(=O)Nc2ccccc2O)cc(C)c1Cc1ccc(O)c(C(C)C)c1 = 2.24
• Cc1cc(OCC(=O)NCCc2ccccc2)cc(C)c1Cc1ccc(O)c(C(C)C)c1 = 0.93
• Cc1cc(OCC(=O)NCC(C)O)cc(C)c1Cc1ccc(O)c(C(C)C)c1 (centres undefined) = 1.75
• Cc1cc(OCC(=O)NCCN)cc(C)c1Cc1ccc(O)c(C(C)C)c1 = 0.84
• Cc1cc(OCC(=O)NCC#N)cc(C)c1Cc1ccc(O)c(C(C)C)c1 = 2.03
• C=CCNC(=O)COc1cc(C)c(Cc2ccc(O)c(C(C)C)c2)c(C)c1 = 1.40
• Cc1cc(OCC(=O)Nc2cccc(F)c2)cc(C)c1Cc1ccc(O)c(C(C)C)c1 = 2.58
• Cc1cc(OCC(=O)NCC(F)(F)F)cc(C)c1Cc1ccc(O)c(C(C)C)c1 = 1.90
• Cc1cc(OCC(=O)NC(CO)CO)cc(C)c1Cc1ccc(O)c(C(C)C)c1 = 1.99
• CONC(=O)COc1cc(C)c(Cc2ccc(O)c(C(C)C)c2)c(C)c1 = 2.32
• Cc1cc(OCC(=O)NCC(F)F)cc(C)c1Cc1ccc(O)c(C(C)C)c1 = 2.11
• Cc1cc(OCC(=O)NC2CC2)cc(C)c1Cc1ccc(O)c(C(C)C)c1 = 1.38
• Cc1cc(OCC(=O)NCCNS(C)(=O)=O)cc(C)c1Cc1ccc(O)c(C(C)C)c1 = 1.42
• Cc1cc(OCC(=O)NCCc2ccc(O)c(O)c2)cc(C)c1Cc1ccc(O)c(C(C)C)c1 = 0.69
• Cc1cc(OCC(=O)Nc2cccc(O)c2)cc(C)c1Cc1ccc(O)c(C(C)C)c1 = 2.51
